- ASSAY INFO: Tmax in BALB/c mouse at 12.5 mg/kg, po measured upto 24 hrs by HPLC analysis
- Format: ADME, organism-based
- CONDITIONS USED: in vivo
Below, each entry is listed with its recorded Tmax.
Please give a number only; it is taken to be in min.

MOLECULE: CC(c1ccc(OC(F)(F)F)cc1)N1CC2(CCN(c3nc(=O)c4cc(C(F)(F)F)cc([N+](=O)[O-])c4s3)CC2)C1 (stereo unspecified)
Tmax / min: 15

*Q* Indicate the recorded Tmax value for this molecule: CC(c1cc(F)cc(F)c1)N1CC2(CCN(c3nc(=O)c4cc(C(F)(F)F)cc([N+](=O)[O-])c4s3)CC2)C1 (stereo unspecified)
*A* 15

*Q* Indicate the recorded Tmax value for this molecule: CC(c1cc(F)c(F)c(F)c1)N1CC2(CCN(c3nc(=O)c4cc(C(F)(F)F)cc([N+](=O)[O-])c4s3)CC2)C1 (stereo unspecified)
*A* 15

*Q* Indicate the recorded Tmax value for this molecule: O=c1nc(N2CCN(CC3CCCCC3)CC2)sc2c([N+](=O)[O-])cc(C(F)(F)F)cc12 [MACOZINONE]
*A* 15

*Q* Indicate the recorded Tmax value for this molecule: CC(c1ccc(C(F)(F)F)cc1)N1CC2(CCN(c3nc(=O)c4cc(C(F)(F)F)cc([N+](=O)[O-])c4s3)CC2)C1 (stereo unspecified)
*A* 15

*Q* Indicate the recorded Tmax value for this molecule: CC(c1ccc(Cl)c(F)c1)N1CC2(CCN(c3nc(=O)c4cc(C(F)(F)F)cc([N+](=O)[O-])c4s3)CC2)C1 (stereo unspecified)
*A* 30

---

- ASSAY INFO: Oral bioavailability in BALB/c mouse at 12.5 mg/kg measured upto 24 hrs by HPLC analysis
- Format: ADME, organism-based
- CONDITIONS USED: BALB/c, in vivo
MEASURED ATTRIBUTE: bioavailability (%)
Please give a number only; it is taken to be in %.

Record excerpt, results attached:
COMPOUND: CC(c1cc(F)cc(F)c1)N1CC2(CCN(c3nc(=O)c4cc(C(F)(F)F)cc([N+](=O)[O-])c4s3)CC2)C1 (stereo not given)
MEASURED ATTRIBUTE: bioavailability
EXPERIMENTAL VALUE: 15
//
COMPOUND: CC(c1ccc(C(F)(F)F)cc1)N1CC2(CCN(c3nc(=O)c4cc(C(F)(F)F)cc([N+](=O)[O-])c4s3)CC2)C1 (stereo not given)
MEASURED ATTRIBUTE: bioavailability
EXPERIMENTAL VALUE: 41.5
//
COMPOUND: CC(c1ccc(OC(F)(F)F)cc1)N1CC2(CCN(c3nc(=O)c4cc(C(F)(F)F)cc([N+](=O)[O-])c4s3)CC2)C1 (stereo not given)
MEASURED ATTRIBUTE: bioavailability
EXPERIMENTAL VALUE: 24.2
//
COMPOUND: CC(c1ccc(Cl)c(F)c1)N1CC2(CCN(c3nc(=O)c4cc(C(F)(F)F)cc([N+](=O)[O-])c4s3)CC2)C1 (stereo not given)
MEASURED ATTRIBUTE: bioavailability
EXPERIMENTAL VALUE: 33

*Q* Indicate the recorded bioavailability value for this compound: CC(c1cc(F)c(F)c(F)c1)N1CC2(CCN(c3nc(=O)c4cc(C(F)(F)F)cc([N+](=O)[O-])c4s3)CC2)C1 (stereo not given)
*A* 18.3
